Experiment: A CellTox Green Cytotoxicity Assay to monitor cytotoxicity in HepG2 cells - 32 hour (AID 1224883); further: nearly all actives have a fitted effect of over 50% in size
Details: CellTox Green fluorescence; series mostly up to 76.8 µM
Records with an inconclusive call do not appear. Active and inactive are the calls of the source. The call rests on the fitted dose curve; in most records, active means well fitted activation curve with a large enough effect in the repeat runs; inconclusive means weak or mixed curves; inactive means flat fitted curve, though single readings scatter.
Pick one and only one: true (1) = active, false (0) = inactive

# input Hi team, can someone confirm the assay call for `Clc1ccc(C(c2ccc(Cl)cc2)C(Cl)(Cl)Cl)cc1` ?
# output false (0)

# input And for `CC1(C)CN=C(NN=C(/C=C/c2ccc(C(F)(F)F)cc2)/C=C/c2ccc(C(F)(F)F)cc2)NC1` ?
# output true (1)

# input And for `NC(=O)c1ccc(N)nc1` ?
# output false (0)

# input And for `COC[C@H](C)N(C(=O)CCl)c1c(C)csc1C` ?
# output false (0)

# input And for `Cc1c(Cl)c(=O)oc2cc(OP(=O)(OCCCl)OCCCl)ccc12` ?
# output false (0)

# input And for `NNC(=O)c1ccccc1` ?
# output false (0)

# input And for `CCCCCCCCCCCCBr` ?
# output false (0)

* * *

Assay: qHTS assay to identify small molecule agonists of the peroxisome proliferator-activated receptor delta (PPARd) signaling pathway - cell viability counter screen (AID 743211); further: nearly all actives have a fitted effect of over 55% in size
Conditions: PPARd-bla HEK293H viability, CellTiter-Glo luminescence, 17 h; series mostly up to 62.6 µM
Inconclusive results are not listed. Activity calls are given as the source filed them. Calls follow the shape of the dose curve; as a rule, active = well fitted cell-killing curve with a large enough effect in the repeat runs; inconclusive = weak or mixed curves; inactive = no such curve, though single readings can be large or run the other way.
Pick one and only one: 1 (yes) = active, 0 (no) = inactive

# input Hi team, can someone confirm the assay call for `CCOCCOC(C)=O` ?
# output 0 (no)

# input And for c1ccc2c(c1)OCC(C1=NCCN1)O2 (configuration not stated) ?
# output 1 (yes)

# input And for `CC[C@H]1C[C@@H]2C[C@H]3c4[nH]c5ccc(OC)cc5c4CCN(C2)[C@@H]13` ?
# output 1 (yes)

# input And for COc1ccc(OC)c(CC(C)N)c1 (configuration not stated) ?
# output 0 (no)

# input And for `CCCCCCCCCCCCCCCC[n+]1ccccc1` ?
# output 1 (yes)

# input And for `CCN(CC)C(=S)[S-].CCN(CC)C(=S)[S-].[Zn+2]` ?
# output 1 (yes)

# input And for `CN(C)CCc1c[nH]c2cccc(O)c12` ?
# output 0 (no)

# input And for `O=c1ssc(Cl)c1Cl` ?
# output 1 (yes)

# input And for `Oc1ccc(C2(c3ccc(O)cc3)c3ccccc3-c3ccccc32)cc1` ?
# output 1 (yes)

# input And for `CCCOCC(=Nc1ccc(Cl)cc1C(F)(F)F)n1ccnc1` ?
# output 1 (yes)

# input And for `N#CNC#N` ?
# output 0 (no)

# input And for `[CH3][Hg][Cl]` ?
# output 1 (yes)

* * *

Test: A CellTox Green Cytotoxicity Assay to monitor cytotoxicity in HepG2 cells - 16 hour (AID 1224876); further: nearly all actives have a fitted effect of over 45% in size
Conditions: CellTox Green fluorescence; series mostly up to 76.8 µM
Results filed as inconclusive are left out. Calls of active or inactive are those of the source. Calls follow the shape of the dose curve; as a rule, active = well fitted activation curve with a large enough effect in the repeat runs; inconclusive = weak or mixed curves; inactive = flat fitted curve, though single readings scatter.
Pick one and only one: t for active, f for inactive

# input Hi team, can someone confirm the assay call for COC12CC[C@@]3(C[C@@H]1C(C)(O)C(C)(C)C)[C@H]1Cc4ccc(O)c5c4[C@@]3(CCN1CC1CC1)[C@H]2O5 (stereo partly drawn) ?
# output t

# input And for `ClC1=C(Cl)[C@]2(Cl)[C@@H]3[C@@H](Cl)[C@@H](Cl)C[C@@H]3[C@@]1(Cl)C2(Cl)Cl` ?
# output f

# input And for `C=CC(=O)N(C)C` ?
# output f

# input And for `C[C@]12CC[C@H](O)C[C@H]1CC[C@@H]1[C@@H]2C[C@@H](O)[C@]2(C)[C@@H](C3=CC(=O)OC3)CC[C@]12O` ?
# output f

# input And for `C[C@@H]1O[C@@H](O[C@H]2C[C@@H](O)[C@]3(CO)[C@H]4[C@H](O)C[C@]5(C)[C@@H](C6=CC(=O)OC6)CC[C@]5(O)[C@@H]4CC[C@]3(O)C2)[C@H](O)[C@H](O)[C@H]1O` ?
# output f

# input And for `Nc1ccccc1C(=O)OC/C=C/c1ccccc1` ?
# output f

# input And for `O=C(CBr)c1ccc(O)cc1` ?
# output f

# input And for CCCCCCCCCCCCCC[P+](CCCCCC)(CCCCCC)CCCCCC (tested in a mixture with another compound) ?
# output t

* * *

Experiment: qHTS assay to identify small molecule antagonists of the estrogen receptor beta (ER-beta) signaling pathway - cell viability counter screen (AID 1259382); further: nearly all actives have a fitted effect of over 55% in size
Settings: ER-beta-UAS-bla HEK293T viability, CellTiter-Glo luminescence, 16 h; series mostly up to 92.4 µM
Excerpt: U.S. Tox21 Program National Center for Advancing Translational Sciences [NCATS] NIH Chemical Genomics Center [NCGC] U.S. Environmental Protection Agency [EPA] National Institutes of Environmental Health Sciences [NIEHS] National Toxicology Program [NTP] U.S. Food and Drug Administration [FDA] Tox21 Assay Overview: Estrogen receptor (ER), a nuclear hormone receptor, plays an important role in development, metabolic homeostasis and reproduction. […]
Inconclusive results are not listed. Calls of active or inactive are those of the source. The call rests on the fitted dose curve; in most records, active means well fitted cell-killing curve with a large enough effect in the repeat runs; inconclusive means weak or mixed curves; inactive means flat fitted curve, though single readings scatter.
Pick one and only one: class 1 = active, class 0 = inactive

# input Hi team, can someone confirm the assay call for `CC(=O)Nc1ccc2c(c1)Cc1ccccc1-2` ?
# output class 0

# input And for `CCCCCCCCCBr` ?
# output class 0

# input And for `CC(C)OC(=S)S` ?
# output class 0

# input And for `Oc1ccc2ccc3cccc4ccc1c2c34` ?
# output class 0

# input And for COC(=O)N(C(=O)N1COC2(C(=O)OC)Cc3cc(Cl)ccc3C2=N1)c1ccc(OC(F)(F)F)cc1 (stereo unspecified) ?
# output class 0

# input And for `BrC(Br)C(Br)(Br)Br` ?
# output class 0

# input And for `C[As+](C)(C)CC(=O)[O-]` ?
# output class 0

# input And for CC1(C)C(/C=C(\Cl)C(F)(F)F)C1C(=O)OC(C#N)c1cccc(Oc2ccccc2)c1 (stereo unspecified) ?
# output class 0

# input And for `CN(C)S(=O)(=O)N(SC(F)(Cl)Cl)c1ccccc1` ?
# output class 1

# input And for `N#CCc1ccc(Cl)cc1` ?
# output class 0

# input And for `CCOCCOC(C)=O` ?
# output class 0

* * *

Assay: qHTS assay to identify small molecule agonists of the androgen receptor (AR) signaling pathway in the presence of an antagonist - cell viability counter screen (AID 1259379); further: nearly all actives have a fitted effect of over 25% in size
Settings: MDA-kb2 viability, CellTiter-Fluor, 16 h; series mostly up to 92.4 µM
Results filed as inconclusive are left out. Activity calls are given as the source filed them. Calls come from the whole dose curve; as a rule, active = well fitted cell-killing curve with a large enough effect in the repeat runs; inconclusive = weak or mixed curves, or effect the other way; inactive = flat fitted curve, though single readings scatter.
Pick one and only one: active, inactive

# input Hi team, can someone confirm the assay call for `CCCCOCN(C(=O)CCl)c1c(CC)cccc1CC` ?
# output inactive

# input And for `ClCc1ccc(Cl)cc1Cl` ?
# output inactive

# input And for `CN(CCCC(=O)c1cccnc1)N=O` ?
# output inactive

# input And for `O=CC(Br)(Br)Br` ?
# output active

# input And for COc1ccc(OC)c(CC(C)N)c1 (configuration not stated) ?
# output inactive

# input And for `CC(=O)C(Cl)(Cl)Cl` ?
# output active

# input And for `CCc1ccccc1C` ?
# output inactive

* * *

Test: qHTS RealTime-Glo MT Cell Viability Assay in HEK293 cells - 32 hour (AID 1224868); further: nearly all actives have a fitted effect of over 50% in size
Details: RealTime-Glo luminescence; series mostly up to 76.8 µM
Results filed as inconclusive are left out. Calls of active or inactive are those of the source. The call rests on the fitted dose curve; in most records, active means well fitted cell-killing curve with a large enough effect in the repeat runs; inconclusive means weak or mixed curves, or effect the other way; inactive means flat fitted curve, though single readings scatter.
Pick one and only one: t (active), f (inactive)

# input Hi team, can someone confirm the assay call for CCC(C)c1cc(C(C)(C)C)cc(-n2nc3ccccc3n2)c1O (stereo not given) ?
# output f

# input And for `Cn1[nH]nnc1=S` ?
# output f

# input And for `Cc1cc(C(C)(C)c2cc(C)c(O)c(C)c2)cc(C)c1O` ?
# output t

# input And for `Fc1cccc(Cl)c1CCl` ?
# output f

# input And for c1ccc(OCC2CO2)cc1 (stereo not given) ?
# output f

* * *

Assay: qHTS assay to identify small molecule antagonists of the thyroid receptor (TR) signaling pathway - cell viability counter screen (AID 743064); further: nearly all actives have a fitted effect of over 50% in size
Details: GH3.TRE-Luc viability, CellTiter-Fluor, 24 h; series mostly up to 70.3 µM
Records with an inconclusive call do not appear. Active and inactive are the calls of the source. Calls come from the whole dose curve; as a rule, active = well fitted cell-killing curve with a large enough effect in the repeat runs; inconclusive = weak or mixed curves, or effect the other way; inactive = no such curve, though single readings can be large or run the other way.
Pick one and only one: active, inactive

# input Hi team, can someone confirm the assay call for `CN(C)S(=O)(=O)N(SC(F)(Cl)Cl)c1ccccc1` ?
# output active

# input And for `CCCCCCCCCCCCCCCCCCn1cc[n+](C)c1` ?
# output active

# input And for `CCCN(CCC)CCc1c[nH]c2ccccc12` ?
# output active

# input And for `ClCc1ccc(Cl)cc1Cl` ?
# output inactive

# input And for `CC[C@H]1C[C@@H]2C[C@H]3c4[nH]c5ccc(OC)cc5c4CCN(C2)[C@@H]13` ?
# output active

# input And for `CC(C)OS(C)(=O)=O` ?
# output inactive

# input And for `C=CC(=O)OCC(COC(=O)C=C)(COC(=O)C=C)COC(=O)C=C` ?
# output active

# input And for `CN(C)C(=S)[S-].CN(C)C(=S)[S-].[Cu+2]` ?
# output active

# input And for `CC(C)CCCCCCCOP(=O)(Oc1ccccc1)Oc1ccccc1` ?
# output active

# input And for `CC(C)OC(=O)C(O)(c1ccc(Cl)cc1)c1ccc(Cl)cc1` ?
# output active

# input And for `O=[N+]([O-])c1ccc(Oc2ccc(C(F)(F)F)cc2[N+](=O)[O-])cc1` ?
# output inactive

# input And for `COc1ccc(N)cc1N` ?
# output active

# input And for c1ccc2c(c1)OCC(C1=NCCN1)O2 (stereo unspecified) ?
# output active

# input And for `CCCCCCCCCBr` ?
# output inactive

# input And for `[CH3][Hg][Cl]` ?
# output active

# input And for `O=c1ssc(Cl)c1Cl` ?
# output active
